test: NCI Yeast Anticancer Drug Screen. Data for the mec2-1 strain (AID 157); settings: S. cerevisiae mec2-1 strain, at 50.0 µM (retest, dose inferred, filed as 5.0)
About 79,000 compounds went through this panel and 15% of them were active in at least one assay; those are over-represented in the sample as a whole. Active and inactive are the calls of the source. No stated cut-off is given here; in the data, active means growth inhibition above about 70%; inactive means the rest.
Return exactly one item of Yes = active, No = inactive

Solved entries:
[
  {
    "compound": "CCOC(=O)C1SC(=Nc2ccc(Cl)cc2C)N=C1C (stereo unspecified)",
    "class_name": "Yes"
  },
  {
    "compound": "O=NN(CCCl)C(=O)Nc1cc(Cl)ccc1O",
    "class_name": "No"
  },
  {
    "compound": "O=C1C=CC(=O)c2ccc(=O)ccc21",
    "class_name": "Yes"
  },
  {
    "compound": "BrC1=CC(Br)=C2N=C(C(Br)(Br)Br)N=C3N=C(C(Br)(Br)Br)N=C1N32",
    "class_name": "Yes"
  },
  {
    "compound": "Oc1ccc2ccccc2c1/C=N\\Sc1ccccc1",
    "class_name": "Yes"
  }
]

Inquiry: In this assay, the call recorded for CC=CCOc1cc(NC(=S)OC(C)C)ccc1Cl (mixture of isomers) was what?
Reply text: Yes

====

experiment: NCI Yeast Anticancer Drug Screen. Data for the mec2-1 strain (AID 157); conditions: S. cerevisiae mec2-1 strain, at 50.0 µM, stronger effect = higher value
This is part of a sample that, as a whole, favours compounds with a hit. Of some 79,000 tested, about 15% had one in any assay.
measurement_kind: growth inhibition (%)
Numbers only, in %.

[
  {
    "molecule": "CCCCCCCCCCCCCCOCCS(=O)(=O)O",
    "unit_of_measurement": "%",
    "growth inhibition": 52.4
  },
  {
    "molecule": "CCCCCC(CN(C)C)C(O)/C=C\\c1ccccc1 (centres undefined)",
    "unit_of_measurement": "%",
    "growth inhibition": 48.6
  }
]

Each of the following entries comes with a recorded value; kindly state growth inhibition for each.
1. CCC(C)NC(=S)N/N=C(\C)c1ccccn1 (centres undefined)
2. CC12CCC(=O)C=C1CCC1C2CCC2(C)C(c3cnc[nH]3)CCC12 (centres undefined)

Reply text:
1. 85.7
2. 30.1

====

test: NCI Yeast Anticancer Drug Screen. Data for the rad50 strain (AID 155);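 further: 0% = growth of vehicle-only cultures of the same strain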; conditions: S. cerevisiae rad50 strain growth inhibition; at 5.0 µM (retest, dose inferred, filed as 0.5)
The panel holds about 79,000 compounds, 15% with a hit somewhere; the sample as a whole holds those more often. Active and inactive are the calls of the source. Rule as the data show it: active = growth inhibition above about 70%; inactive = the rest.
Select the correct class. Options are active, inactive and nothing else.

[
  {
    "molecule": "O=C(CC(O)c1ccccc1)Sc1ccccc1 (stereo not given)",
    "class_name": "inactive"
  },
  {
    "molecule": "Cc1c(O)c2c(c(O)c1Br)C(=O)C=CC2=O",
    "class_name": "active"
  },
  {
    "molecule": "CNC(=O)N(C1=NCC(C)S1)c1ccc(C)c(C)c1 (stereo not given)",
    "class_name": "inactive"
  },
  {
    "molecule": "CCCC[N-]CC(O)C[NH-].O=C(O)CC(=O)O.[Pt+2] (stereo not given)",
    "class_name": "inactive"
  },
  {
    "molecule": "CCO/C=C1\\C(=O)C=C(C)CC1c1ccc(OC)c(OC)c1OC (stereo not given)",
    "class_name": "inactive"
  }
]

Inquiry: What did this assay record as the result for NC(=S)SCCC(=O)O ?
Reply text: inactive

Inquiry: Hi team, can someone confirm the assay call for Oc1cc(O)cc(O)c1 ?
Reply text: inactive

Inquiry: Just curious, what result did CCC(=O)OC1CCC(C2CCCCC2)CC1 (stereo not given) get here?
Reply text: inactive

Inquiry: Assay result, entry CCCCCCCCCCCCCCNC(=O)C[N+](C)(C)Cc1ccccc1 — outcome?
Reply text: active

Inquiry: I'd appreciate the recorded outcome for O=C(CCl)Oc1ccc(Sc2ccc(OC(=O)CCl)cc2)cc1 from this test.
Reply text: inactive

Inquiry: Answer briefly: the call reported for CC1=CC(=N/O)/C=CC/1=C(\C#N)c1ccccc1 in this assay.
Reply text: inactive

Inquiry: Which outcome was entered for the molecule C/C=C(\C)[C@H](O)C(COCc1ccccc1)NS(=O)(=O)c1ccc(C)cc1 (stereo not given in full) in this test?
Reply text: inactive
